# Test system: IL-6 levels in human whole blood stimulated with a TLR2 agonist
# ASSAY PROTOCOL: IRAK4 Whole Blood Assay (lipoteichoic acid/TLR2-stimulated IL-6)
# Type: cell-based
# RUN CONDITIONS: Homo sapiens, lipoteichoic acid 10 μg/mL, IL-6 readout
// values below are reported pEC50
# pEC50 = -log10(concentration in molar units)

These solved cases illustrate the format of a correct answer.
molecule=Cc1cnn2c(-c3cc(NC(C)C)c(C(=O)NC[C@@H](F)C(C)(C)O)cn3)cnc2c1 subject_of_test="IL-6 levels in human whole blood stimulated with a TLR2 agonist" measured=6.46
molecule=CC(C)(O)[C@H](F)CNC(=O)c1cnc(-c2cnc3cc(Cl)cnn23)cc1Nc1cnn(C2CC(F)(F)C2)c1 subject_of_test="IL-6 levels in human whole blood stimulated with a TLR2 agonist" measured=6.31
molecule=CC(C)(O)c1cnc(Nc2cc(-c3cnn4cc(Cl)cnc34)ncc2C(=O)NC[C@@H](F)C(C)(C)O)s1 subject_of_test="IL-6 levels in human whole blood stimulated with a TLR2 agonist" measured=6.06
molecule=CC(C)(O)[C@H](F)CNC(=O)c1cnc(-c2cnc3cc(C#N)cnn23)cc1Nc1cnn(C(F)F)c1 subject_of_test="IL-6 levels in human whole blood stimulated with a TLR2 agonist" measured=6.42
molecule=CC(C)Nc1cc(-c2cnc3cc(C#N)cnn23)ncc1C(=O)NCC(F)(F)C(C)(C)O subject_of_test="IL-6 levels in human whole blood stimulated with a TLR2 agonist" measured=6.08

[ask] Record request: pEC50 value, item CC(C)Nc1cc(-c2cnn3cc(Cl)cnc23)ncc1C(=O)NCCC(C)(C)F
[reply] 5.60

[ask] Try CC(C)(O)[C@H](F)CNC(=O)c1cnc(-c2cnc3cc(Cl)cnn23)cc1Nc1cnn(C2CCC2)c1 next.
[reply] 6.43

[ask] Try CC(C)(O)[C@H]1CC[C@H](Nc2cc(-c3cnn4cc(Cl)cnc34)ncc2C(=O)NC[C@@H](F)C(C)(C)O)C1 next.
[reply] 6.16

[ask] Try CC(F)(F)CNc1cc(-c2cnn3cc(C#N)cnc23)ncc1C(=O)NC[C@@H](F)C(C)(C)O next.
[reply] 6.34

[ask] Try CC(C)Nc1cc(-c2cnc3cc(C#N)cnn23)ncc1C(=O)NC1CCC(N(C)C)CC1 (stereo not drawn) next.
[reply] 6.22
